# merged literature set: pKi with Cathepsin D (Homo sapiens, UniProt P07339)
pKi: −log10 of the molar value.

CCc1csc(CN(C)C(=O)c2cccc(C(=O)NC(CC(C)C)C(O)CC(C)C(=O)NC(C(=O)NCC(C)C)C(C)C)c2)n1 (centres unmarked) : < 5.30
Cc1csc(C[C@H](C)C(=O)N[C@@H](CC(=O)N(C)C)C(=O)N[C@@H](CC(C)C)[C@@H](O)C[C@@H](C)C(=O)N[C@H](C(=O)NCC(C)C)C(C)C)n1 : > 7.00
Cc1cccc(CNCC(O)C(Cc2ccccc2)NC(=O)c2cccc(C(=O)N(C)Cc3nc(C)cs3)c2)c1 (centres unmarked) : > 6.52
COc1cccc(CNCC(O)C(Cc2ccccc2)NC(=O)c2cccc(C(=O)N(C)Cc3cc(C)no3)c2)c1 (centres unmarked) : > 6.52
Cc1csc([C@H]2CCCN2C(=O)c2cc(C(=O)N[C@@H](Cc3cc(F)cc(F)c3)[C@H](O)[C@H]3CCCN3)cc(N3CCCS3(=O)=O)c2)n1 : < 6.30

Here are 2 compounds. What values of pKi were reported for them?
1. Cc1ccc(CNCC(O)C(Cc2ccccc2)NC(=O)c2cc(C(=O)NC(C)c3ccccc3)cc(N(C)S(C)(=O)=O)c2)o1 (centres unmarked)
2. CC(NC(=O)c1cc(C(=O)NC(Cc2ccccc2)C(O)CNCc2cccc(CN(C)C)c2)cc(N(C)S(C)(=O)=O)c1)c1ccccc1 (centres unmarked)

A.
1: > 6.52; 2: < 6.30

Here are 2 compounds. What values of pKi were reported for them?
1. CC(NC(=O)c1cc(C(=O)NC(Cc2ccccc2)C(O)CNCCN2CCCCC2)cc(N(C)S(C)(=O)=O)c1)c1ccccc1 (centres unmarked)
2. CC(NC(=O)c1cc(C(=O)NC(Cc2ccccc2)C(O)CNCc2ccccn2)cc(N(C)S(C)(=O)=O)c1)c1ccccc1 (centres unmarked)

A.
["< 6.30", "< 6.30"]

Here are 5 compounds. What values of pKi were reported for them?
1. Cc1csc(COC(=O)N[C@@H](CNS(C)(=O)=O)C(=O)N[C@@H](CC(C)C)[C@@H](O)C[C@@H](C)C(=O)N[C@H](C(=O)NCC(C)C)C(C)C)n1
2. Cc1csc(COC(=O)N[C@@H](CC(N)=O)C(=O)N[C@@H](CC(C)C)[C@@H](O)C[C@@H](C)C(=O)N[C@H](C(=O)NCC(C)C)C(C)C)n1
3. Cc1csc(CNC(=O)c2cccc(C(=O)N[C@@H](CC(C)C)[C@@H](O)C[C@@H](C)C(=O)N[C@H](C(=O)NCC(C)C)C(C)C)n2)n1
4. COc1cccc(CNCC(O)C(Cc2ccccc2)NC(=O)c2cc(C(=O)NC(C)c3ccccc3)c(F)cc2F)c1 (centres unmarked)
5. CC(C)CC(NC(=O)c1cc(C(=O)NC(C)c2ccccc2)cc(N(C)C(=O)OC2CCOC2)c1)C(O)CC(C)C(=O)NC(C(=O)NC(C)C)C(C)C (centres unmarked)

A.
6.22 to 7.00
< 6.22
< 5.30
> 6.52
> 6.39

----------
# merged literature set: Ki with Cathepsin D (Homo sapiens, UniProt P07339)

CC(NC(=O)c1cc(C(=O)NC(Cc2ccccc2)C(O)CNCc2cccc(F)c2)cc(N(C)S(C)(=O)=O)c1)c1ccccc1 (stereo not shown) : 301 to 500 nM

Here are 5 compounds. What values of Ki were reported for them?
1. COC(=O)c1cccc(CNCC(O)C(Cc2ccccc2)NC(=O)c2cc(C(=O)NC(C)c3ccccc3)cc(N(C)S(C)(=O)=O)c2)c1 (stereo not shown)
2. Cc1csc([C@H]2CCCN2C(=O)c2cc(C(=O)N[C@@H](Cc3ccccc3)[C@H](O)[C@H]3CCCN3)cc(N3CCCS3(=O)=O)c2)n1
3. COc1cccc(C(C)NCC(O)C(Cc2ccccc2)NC(=O)c2cc(C(=O)NC(C)c3cccc(OC)c3)cc(N(C)S(C)(=O)=O)c2)c1 (stereo not shown)
4. COc1cccc(CCNCC(O)C(Cc2ccccc2)NC(=O)c2cccc(C(=O)N(C)Cc3nc(C)cs3)c2)c1 (stereo not shown)
5. COc1cccc(CNC(=O)C(C)CC(O)C(CC(C)C)NC(=O)c2cc(C(=O)NC(C)c3ccccc3)cc(N(C)S(C)(=O)=O)c2)c1 (stereo not shown)

A.
1: > 501 nM; 2: > 500 nM; 3: < 300 nM; 4: 301 to 500 nM; 5: > 5000 nM

Q. Can you share its Ki? I mean this compound: CCC(NC(=O)c1cc(C(=O)NC(Cc2ccccc2)C(O)CNCc2cccc(OC)c2)cc(N(C)S(C)(=O)=O)c1)c1ccccc1 (stereo not shown)
A. < 300 nM

----------
# merged literature set: Ki with Cathepsin D (Homo sapiens, UniProt P07339)

The cases that follow already have their Ki on record.
Cc1csc(C[C@H](C)C(=O)N[C@@H](CC(=O)O)C(=O)N[C@@H](CC(C)C)[C@@H](O)C[C@@H](C)C(=O)N[C@H](C(=O)NCC(C)C)C(C)C)n1 : 0.1 to 0.6 µM
Cc1cc(C)n(CC(N=[N+]=[N-])C(=O)N[C@@H](CNC(=O)OC(C)(C)C)C(=O)N[C@@H](CC(C)C)[C@@H](O)C[C@@H](C)C(=O)N[C@H](C(=O)NCC(C)C)C(C)C)n1 (some centres unmarked) : < 0.1 µM
CC(NCC(O)C(Cc1ccccc1)NC(=O)c1cc(C(=O)NC(C)c2ccccc2)cc(N(C)S(C)(=O)=O)c1)c1ccc(F)cc1 (centres unmarked) : < 0.3 µM
COc1ccc(CCNCC(O)C(Cc2ccccc2)NC(=O)c2cc(C(=O)NC(C)c3ccccc3)cc(N(C)S(C)(=O)=O)c2)cc1 (centres unmarked) : < 0.3 µM
Cc1csc(CN(C)C(=O)c2cccc(C(=O)NC(Cc3ccccc3)C(O)CNCc3cc(C)on3)c2)n1 (centres unmarked) : 0.301 to 0.5 µM

Here are 4 compounds. What values of Ki were reported for them?
1. CC(C)CNC(=O)C(NC(=O)C(C)CC(O)C(CC(C)C)NC(=O)c1cccc(C(=O)N(C)C(C)c2ccccc2)c1)C(C)C (centres unmarked)
2. CC(=O)NC[C@H](NC(=O)OCc1nc(C)cs1)C(=O)N[C@@H](CC(C)C)[C@@H](O)C[C@@H](C)C(=O)N[C@H](C(=O)NCC(C)C)C(C)C
3. CC(C)c1cncc(CNCC(O)C(Cc2ccccc2)NC(=O)c2cc(C(=O)NC(C)c3ccccc3)cc(N(C)S(C)(=O)=O)c2)c1 (centres unmarked)
4. Cc1cc(C)n(CCC(=O)N[C@@H](CC(N)=O)C(=O)N[C@@H](CC(C)C)[C@@H](O)C[C@@H](C)C(=O)N[C@H](C(=O)NCC(C)C)C(C)C)n1

A.
1: < 0.405 µM; 2: 0.1 to 0.6 µM; 3: < 0.3 µM; 4: < 0.1 µM

Here are 5 compounds. What values of Ki were reported for them?
1. CC(NC(=O)c1cc(C(=O)NC(Cc2ccccc2)C(O)CNCc2cncc(F)c2)cc(N(C)S(C)(=O)=O)c1)c1ccccc1 (centres unmarked)
2. CCN(c1cc(C(=O)NC(C)c2ccccc2)cc(C(=O)NC(Cc2ccccc2)C(O)CNCc2cccc(OC)c2)c1)S(C)(=O)=O (centres unmarked)
3. CN1C(=N)N[C@](C)(c2sc3c(-c4ccc(-n5cccn5)nc4)nccc3c2Cl)CS1(=O)=O
4. CC(C)CC(NC(=O)c1cc(C(=O)NC(C)c2ccccc2)cc(N(C)S(C)(=O)=O)c1)C(O)CC(C)C(=O)NC(C(=O)NCc1ccccn1)C(C)C (centres unmarked)
5. Cc1csc(CNC(=O)c2cccc(C(=O)N[C@@H](CC(C)C)[C@@H](O)C[C@@H](C)C(=O)N[C@H](C(=O)NCC(C)C)C(C)C)c2)n1

A.
1. < 0.3 µM
2. < 0.3 µM
3. 6.97 µM
4. < 0.405 µM
5. 0.405 to 2 µM

----------
pKi: −log10 of the molar value.
# merged literature set: pKi with Cathepsin D (Homo sapiens, UniProt P07339)

COc1ccc(C[C@H](NC(=O)c2cccc(C(=O)NCc3nc(C)cs3)c2)[C@@H](O)C[C@@H](C)C(=O)N[C@H](C(=O)NCC(C)C)C(C)C)cc1 : > 6.39
Cc1nc(C[C@H](C)C(=O)N[C@@H](CNC(=O)OC(C)(C)C)C(=O)N[C@@H](CC(C)C)[C@@H](O)C[C@@H](C)C(=O)N[C@H](C(=O)NCC(C)C)C(C)C)c(C)o1 : > 7.00
CC(C)CNC(=O)C(NC(=O)C(C)CC(O)C(CC(C)C)NC(=O)c1cccc(C(=O)N(C)Cc2cccnc2)c1)C(C)C (stereo not drawn) : > 6.39
CC[C@@H](Cn1nc(C)cc1C)C(=O)N[C@@H](CC(N)=O)C(=O)N[C@@H](CC(C)C)[C@@H](O)C[C@@H](C)C(=O)N[C@H](C(=O)NCC(C)C)C(C)C : > 7.00
CC(NC(=O)c1cc(C(=O)NC(Cc2ccccc2)C(O)CNN(C)c2ccccc2)cc(N(C)S(C)(=O)=O)c1)c1ccccc1 (stereo not drawn) : < 6.30

Q. Missing value: pKi, Cathepsin D (Homo sapiens, UniProt P07339), entry Cc1csc(C[C@H](C)C(=O)N[C@@H](CNC(=O)OC(C)(C)C)C(=O)N[C@@H](CC(C)C)[C@@H](O)C[C@@H](C)C(=O)N[C@H](C(=O)NCc2ccncc2)C(C)C)n1 . Fill in?
A. 6.22 to 7.00
